Record form. Attribute: inhibition at 10 µM. Fill in for each entry.
- experimentalTarget: ROCK2 protein (Homo sapiens, UniProt O75116)
- Sequence (O75116 whole entry): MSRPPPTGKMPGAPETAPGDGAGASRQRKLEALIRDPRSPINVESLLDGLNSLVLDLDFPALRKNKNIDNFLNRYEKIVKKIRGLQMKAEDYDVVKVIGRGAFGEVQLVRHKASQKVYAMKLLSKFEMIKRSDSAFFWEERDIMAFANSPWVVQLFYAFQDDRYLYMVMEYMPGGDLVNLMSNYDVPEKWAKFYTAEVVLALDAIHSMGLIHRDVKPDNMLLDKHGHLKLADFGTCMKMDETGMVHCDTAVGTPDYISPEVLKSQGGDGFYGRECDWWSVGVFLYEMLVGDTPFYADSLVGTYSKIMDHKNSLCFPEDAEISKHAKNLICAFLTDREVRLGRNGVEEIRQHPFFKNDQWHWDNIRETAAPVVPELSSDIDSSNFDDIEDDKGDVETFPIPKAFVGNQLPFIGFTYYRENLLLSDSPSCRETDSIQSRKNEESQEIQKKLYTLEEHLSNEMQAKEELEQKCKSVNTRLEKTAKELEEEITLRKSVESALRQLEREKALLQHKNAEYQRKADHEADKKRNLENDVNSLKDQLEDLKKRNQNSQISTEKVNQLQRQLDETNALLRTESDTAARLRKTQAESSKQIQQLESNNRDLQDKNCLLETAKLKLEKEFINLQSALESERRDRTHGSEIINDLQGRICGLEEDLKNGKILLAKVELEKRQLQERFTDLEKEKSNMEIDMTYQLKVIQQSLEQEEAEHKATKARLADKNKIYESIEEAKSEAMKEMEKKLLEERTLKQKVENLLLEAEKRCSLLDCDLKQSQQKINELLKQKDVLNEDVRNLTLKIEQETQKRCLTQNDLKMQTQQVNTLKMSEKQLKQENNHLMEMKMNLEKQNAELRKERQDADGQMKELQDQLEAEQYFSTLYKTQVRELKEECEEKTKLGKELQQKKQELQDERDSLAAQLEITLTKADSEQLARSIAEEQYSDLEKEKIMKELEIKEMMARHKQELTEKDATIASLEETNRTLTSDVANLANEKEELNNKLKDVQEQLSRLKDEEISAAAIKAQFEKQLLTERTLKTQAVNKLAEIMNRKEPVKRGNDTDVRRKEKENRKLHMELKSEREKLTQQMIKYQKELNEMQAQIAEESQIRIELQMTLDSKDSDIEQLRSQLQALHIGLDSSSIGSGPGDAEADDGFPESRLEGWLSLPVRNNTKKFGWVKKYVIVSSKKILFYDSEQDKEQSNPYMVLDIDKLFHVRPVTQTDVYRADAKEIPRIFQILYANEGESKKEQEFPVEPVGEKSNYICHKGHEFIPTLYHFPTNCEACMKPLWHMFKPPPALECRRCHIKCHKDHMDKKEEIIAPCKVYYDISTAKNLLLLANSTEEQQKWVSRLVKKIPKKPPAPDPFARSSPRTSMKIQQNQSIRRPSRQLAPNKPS
- experiment: Degradation inducing activity of ROCK2 protein in HUVEC cells, Western blotting (Simple Western JESS)
- Type: cell-based
- Design: endogenous in cells; host or cells: HUVEC (ATCC CRL-1730)
- conditionParameters: HUVEC, 24 h, degradation rate at 10 µM

Problem: Looking for the measured inhibition at 10 µM of C[C@@H]1CN(CC(=O)N2CC(C)(C)c3ncc(Cc4ccc(F)cc4)cc32)[C@@H](CN(C)CCOCCOCCOCCOCCOCCOCCN[C@H](Cc2cccc(F)c2)C(=O)Nc2ccc(-c3ccncc3)cc2)CN1 [Example 13] , can you help?
Solution: < 25%

Problem: Now this one: C[C@@H]1CN(CC(=O)N2CC(C)(C)c3ncc(Cc4ccc(F)cc4)cc32)[C@@H](CN(C)CCOCCOCCOCCOCCOCCNC[C@@H](C(=O)Nc2ccc3cnccc3c2)c2ccccc2)CN1 [Example 19]
Solution: ≥ 75%

Problem: // query: C[C@@H]1CN(CC(=O)N2CC(C)(C)c3ncc(Cc4ccc(F)cc4)cc32)[C@@H](CN(C)CCOCCN[C@H](Cc2cccc(F)c2)C(=O)Nc2ccc(-c3ccncc3)cc2)CN1 [Example 8]
Solution: ≥ 75%

Problem: For C[C@@H]1CN(CC(=O)N2CC(C)(C)c3ncc(Cc4ccc(F)cc4)cc32)[C@@H](CN(C)CCOCCOCCOCCNC[C@@H](C(=O)Nc2ccc3cnccc3c2)c2ccccc2)CN1 [Example 17] then?
Solution: ≥ 75%

Problem: Okay, and COC[C@H]1CN[C@H](C)CN1CC(=O)N1CC(C)(C)c2ncc(Cc3ccccc3OCCOCCOCCOCCOCCOCCOCCOCCN[C@H](Cc3cccc(F)c3)C(=O)Nc3ccc(-c4ccncc4)cc3)cc21 [Example 77] ?
Solution: ≥ 75%
